experiment: Stability of the analytes in rat plasma QC samples under storage conditions; type: in vitro ADME; settings: 300 ng/mL
Quick list: At −80°C for a month Remain per entry.

molecule	unit-spec	At −80°C for a month Remain
COC(=O)C1=CO[C@@H](O)[C@@H]2C(CO)=CC[C@H]12	%	105
CC(/C=C/C=C(\C)C(=O)O)=C\C=C\C=C(C)\C=C\C=C(/C)C(=O)O	%	105
O=C(O)C1=CO[C@@H](O[C@@H]2O[C@H](CO)[C@@H](O)[C@H](O)[C@H]2O)[C@@H]2C(CO)=CC[C@H]12	%	106
COC(=O)C1=CO[C@@H](O[C@@H]2O[C@H](CO[C@@H]3O[C@H](CO)[C@@H](O)[C@H](O)[C@H]3O)[C@@H](O)[C@H](O)[C@H]2O)[C@@H]2C(CO)=CC[C@H]12 [Genipin-1-β-gentiobioside]	%	95.1
COC(=O)C1=CO[C@@H](O[C@@H]2O[C@H](CO)[C@@H](O)[C@H](O)[C@H]2O)[C@@H]2C(CO)=CC[C@H]12 [Geniposide]	%	94.8
